# MEASUREMENT PROTOCOL: qHTS assay for small molecules that induce genotoxicity in human embryonic kidney cells expressing luciferase-tagged ATAD5 (AID 651632); note: nearly all actives have a fitted effect of over 15% in size
# CONDITION LABEL: HEK293T ATAD5-luciferase induction, 16 h; series mostly up to 83.3 µM
Results filed as inconclusive are left out. Calls of active or inactive are those of the source. Calls come from the whole dose curve; as a rule, active = well fitted activation curve with a large enough effect in the repeat runs; inconclusive = weak or mixed curves; inactive = no such curve, though single readings can be large or run the other way.
I would appreciate it if you answered using one of these outcomes: active, inactive

Problem: Which outcome was entered for the compound CCOc1ccc(N=Nc2ccc(N)cc2N)cc1 in this test?
Solution: active

Problem: Which outcome was entered for the compound CCCCCCCCCCCCCCCC(=O)OC[C@@H](COP(=O)([O-])OCC[N+](C)(C)C)OC(=O)CCCCCCCCCCCCCCC in this test?
Solution: inactive

Problem: Which outcome was entered for the compound COC(=O)[C@@H](N)CS in this test?
Solution: inactive

Problem: Which outcome was entered for the compound C=CCNC1=C2C[C@@H](C)C[C@H](OC)[C@H](O)[C@@H](C)/C=C(\C)[C@H](OC(N)=O)[C@@H](OC)/C=C\C=C(/C)C(=O)NC(=CC1=O)C2=O in this test?
Solution: inactive

Problem: Which outcome was entered for the compound CC1(S(=O)(=O)O)CC(=O)c2ccccc2C1=O (stereo not given) in this test?
Solution: inactive

* * *

# MEASUREMENT PROTOCOL: qHTS assay to identify small molecule antagonists of the estrogen receptor alpha (ER-alpha) signaling pathway - cell viability counter screen (AID 743074);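 note: HEK293 cells carrying ER-alpha-UAS-bla reporter stimulated with 17beta-estradiol; nearly all actives have a fitted effect of over 45% in size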
# CONDITION LABEL: ERalpha-bla HEK293 viability, CellTiter-Glo luminescence, 18 h; series mostly up to 69.4 µM
Records with an inconclusive call do not appear. The source made the active and inactive calls. Calls follow the shape of the full dose curve. Non-standard residues stand in square brackets, D forms with d. Residues, ends and D or L forms follow the SMILES beside them. pGlu = O=C1CC[C@@H](C(=O)O)N1; Thz = O=C(O)[C@@H]1CSCN1
I would appreciate it if you answered using one of these outcomes: active, inactive

Problem: Which outcome was entered for the compound CC(C)NCC(O)COc1ccccc1-n1cccc1 (stereo not drawn) in this test?
Solution: inactive

Problem: Which outcome was entered for the compound CCN(CC)CCC(=O)N1c2ccccc2Sc2ccc(Cl)cc21 in this test?
Solution: inactive

Problem: Which outcome was entered for the compound CC(=O)[C@@]1(O)CC[C@H]2[C@@H]3C=C(Cl)C4=CC(=O)[C@@H]5C[C@@H]5[C@]4(C)[C@H]3CC[C@@]21C in this test?
Solution: inactive

Problem: Which outcome was entered for the compound C[Se]CCC(N)C(=O)O (stereo not drawn) in this test?
Solution: inactive

Problem: Which outcome was entered for the compound CN=C1C=CC(=C(c2ccc(N(C)C)cc2)c2ccc(N(C)C)cc2)C=C1 in this test?
Solution: active

Problem: Which outcome was entered for the compound CCOC(=O)[C@@H](N)CS in this test?
Solution: inactive

Problem: Which outcome was entered for the compound CCCCCCCCCCCCCCCCCCCCCCO in this test?
Solution: inactive

Problem: Which outcome was entered for the compound O=C1CC[C@@H](C(=O)N2CSC[C@H]2C(=O)O)N1 ([pGlu]-[Thz]-OH) in this test?
Solution: inactive

Problem: Which outcome was entered for the compound CO[C@H]1C=CO[C@@]2(C)Oc3c(C)c(O)c4c(O)c(c(/C=N/N5CCN(C6CCCC6)CC5)c(O)c4c3C2=O)NC(=O)/C(C)=C\C=C[C@H](C)[C@H](O)[C@@H](C)[C@@H](O)[C@@H](C)[C@H](OC(C)=O)[C@@H]1C in this test?
Solution: inactive

Problem: Which outcome was entered for the compound Cn1nnnc1SCC1=C(C(=O)O)N2C(=O)[C@@H](NC(=O)[C@H](O)c3ccccc3)[C@H]2SC1 in this test?
Solution: inactive

Problem: Which outcome was entered for the compound CC(C)CN(C[C@@H](O)[C@H](Cc1ccccc1)NC(=O)O[C@H]1CO[C@H]2OCC[C@H]21)S(=O)(=O)c1ccc(N)cc1 in this test?
Solution: inactive

Problem: Which outcome was entered for the compound NCCCC[C@H](NC(=O)[C@@H]1CCCN1C(=O)[C@@H]1CSSC[C@H](N)C(=O)N[C@@H](Cc2ccccc2)C(=O)N[C@@H](Cc2ccccc2)C(=O)N[C@@H](CCC(N)=O)C(=O)N[C@@H](CC(N)=O)C(=O)N1)C(=O)NCC(N)=O in this test?
Solution: inactive

Problem: Which outcome was entered for the compound C[C@]12CCC(=O)C=C1CC[C@@H]1[C@@H]2[C@@H](O)C[C@@]2(C)[C@H]1CC[C@]2(O)C(=O)COP(=O)(O)O in this test?
Solution: inactive

Problem: Which outcome was entered for the compound CN(C)C=Nc1c(I)cc(I)c(CCC(=O)O)c1I in this test?
Solution: inactive

Problem: Which outcome was entered for the compound COc1ccc(-c2noc(CC(=O)O)c2-c2ccc(OC)cc2)cc1 in this test?
Solution: inactive

Problem: Which outcome was entered for the compound CCCCCCCC(=O)CC[C@@H]1[C@@H](C/C=C\CCCC(=O)OC(C)C)[C@@H](O)C[C@H]1O in this test?
Solution: active

Problem: Which outcome was entered for the compound CCCCCc1ccc(C)cc1O in this test?
Solution: inactive

Problem: Which outcome was entered for the compound Cc1c(Cl)cccc1Nc1ncccc1C(=O)O in this test?
Solution: inactive
